- Test system: whole complement
- Assay Comment: In vivo complement inhibition in guinea pigs (whole complement of serum, capillary tube assay)
- Set-up: species or system guinea pig
- Measurement Conditions: Cavia porcellus, ip, 2 h; intraperitoneal, 200 mg/kg, 120 mins.; read-out: In Vivo Activity (Guinea Pig) % Inhibition Intraperitoneal 120 mins.
Measure Name: change in vivo at 200 mg/kg (%)
Your answer is read as %, so omit the unit and give the number.

Input: Return change in vivo at 200 mg/kg measured with whole complement given this compound: `O=C(Nc1cc(C(=O)O)cc(C(=O)Nc2cc(S(=O)(=O)O)cc3cc(S(=O)(=O)O)cc(S(=O)(=O)O)c23)c1)Nc1cc(C(=O)O)cc(C(=O)Nc2cc(S(=O)(=O)O)cc3cc(S(=O)(=O)O)cc(S(=O)(=O)O)c23)c1`
Output: -48

Input: Now consider `O=C(Nc1ccc(C(=O)Nc2cccc3cc(S(=O)(=O)O)cc(O)c23)c(S(=O)(=O)O)c1)Nc1ccc(C(=O)Nc2cccc3cc(S(=O)(=O)O)cc(O)c23)c(S(=O)(=O)O)c1` and answer again.
Output: -58

Input: Now consider `CC(=O)Nc1ccc2c(S(=O)(=O)O)cc(S(=O)(=O)O)cc2c1NC(=O)c1ccc(NC(=O)Nc2ccc(C(=O)Nc3c(NC(C)=O)ccc4c(S(=O)(=O)O)cc(S(=O)(=O)O)cc34)c(S(=O)(=O)O)c2)cc1S(=O)(=O)O` and answer again.
Output: 4

Input: Now consider `O=C(Nc1cc(C(=O)O)cc(C(=O)Nc2ccc(S(=O)(=O)O)c3cc(S(=O)(=O)O)cc(O)c23)c1)Nc1cc(C(=O)O)cc(C(=O)Nc2ccc(S(=O)(=O)O)c3cc(S(=O)(=O)O)cc(O)c23)c1` and answer again.
Output: -94

Input: Now consider `O=C(Nc1cc(C(=O)O)cc(C(=O)Nc2ccc(S(=O)(=O)O)c3cc(S(=O)(=O)O)cc(S(=O)(=O)O)c23)c1)Nc1cc(C(=O)O)cc(C(=O)Nc2ccc(S(=O)(=O)O)c3cc(S(=O)(=O)O)cc(S(=O)(=O)O)c23)c1` and answer again.
Output: -71

Input: Now consider `O=C(Nc1cc(C(=O)O)cc(C(=O)Nc2cc(S(=O)(=O)O)cc3cc(S(=O)(=O)O)cc(O)c23)c1)Nc1cc(C(=O)O)cc(C(=O)Nc2cc(S(=O)(=O)O)cc3cc(S(=O)(=O)O)cc(O)c23)c1` and answer again.
Output: -69

Input: Now consider `O=C(Nc1ccc(C(=O)Nc2cc(S(=O)(=O)O)cc3cccc(S(=O)(=O)O)c23)c(S(=O)(=O)O)c1)Nc1ccc(C(=O)Nc2cc(S(=O)(=O)O)cc3cccc(S(=O)(=O)O)c23)c(S(=O)(=O)O)c1` and answer again.
Output: -31

---

- System: whole complement
- Assay Comment: In vivo complement inhibition in guinea pigs (whole complement of serum, capillary tube assay)
- Design: species or system guinea pig
- Measurement Conditions: Cavia porcellus, ip, 0.5 h, read-out: In Vivo Activity (Guinea Pig) % Inhibition Intraperitoneal 30 mins.
- Text: An active inhibitor protects C2 from C1 and C4; (ii) Test, Code 035 (C3-C9 inhibitor)--This test determines the ability of the late components of human complement (C3-C9) to lyse EAC 142 in the presence of appropriate dilutions of the test compound. […]
Measure Name: change in vivo at 200 mg/kg (%)
Your answer is read as %, so omit the unit and give the number.

O=C(Nc1ccc(C(=O)Nc2cc(S(=O)(=O)[O-])cc3cc(S(=O)(=O)[O-])cc(S(=O)(=O)[O-])c23)cc1)Nc1ccc(C(=O)Nc2cc(S(=O)(=O)[O-])cc3cc(S(=O)(=O)[O-])cc(S(=O)(=O)[O-])c23)cc1.[Na+].[Na+].[Na+].[Na+].[Na+].[Na+] : -18
O=C(Nc1ccc(C(=O)Nc2ccc(S(=O)(=O)[O-])c3cc(S(=O)(=O)[O-])cc(O)c23)c(S(=O)(=O)[O-])c1)Nc1ccc(C(=O)Nc2ccc(S(=O)(=O)[O-])c3cc(S(=O)(=O)[O-])cc(O)c23)c(S(=O)(=O)[O-])c1.[Na+].[Na+].[Na+].[Na+].[Na+].[Na+] : 1
O=C(Nc1ccc(C(=O)Nc2ccc(S(=O)(=O)[O-])c3cc(S(=O)(=O)[O-])cc(S(=O)(=O)[O-])c23)c(S(=O)(=O)[O-])c1)Nc1ccc(C(=O)Nc2ccc(S(=O)(=O)[O-])c3cc(S(=O)(=O)[O-])cc(S(=O)(=O)[O-])c23)c(S(=O)(=O)[O-])c1.[Na+].[Na+].[Na+].[Na+].[Na+].[Na+].[Na+].[Na+] : -32

// next item, change in vivo at 200 mg/kg requested
Input: # input compound: `O=C(Nc1ccc(C(=O)Nc2cc(S(=O)(=O)[O-])cc3ccc(S(=O)(=O)[O-])cc23)c(S(=O)(=O)[O-])c1)Nc1ccc(C(=O)Nc2cc(S(=O)(=O)[O-])cc3ccc(S(=O)(=O)[O-])cc23)c(S(=O)(=O)[O-])c1.[Na+].[Na+].[Na+].[Na+].[Na+].[Na+]` ; wanted: its change in vivo at 200 mg/kg
Output: -3
